# Tested on: HepG2
# test_description: cytotoxicity call (relative viability < 0.9)
# measurement_setup: 10 µM
Among all 39,000 compounds or so, about 3,300 (8.5%) were called active. Only a selection was taken, and actives are over-represented in it overall.
The reply should be one of these categories: 1.0 (active), 0.0 (inactive)

Q: Which outcome was entered for the compound C[C@@H]1CCCCO[C@H](CN(C)C(=O)Nc2cccc3ccccc23)[C@H](C)CN([C@@H](C)CO)C(=O)c2cc(NS(=O)(=O)c3cn(C)cn3)ccc2O1 in this test?
Ans: 0.0

Q: Which outcome was entered for the compound CCS(=O)(=O)NCC[C@H]1CC[C@H](NC(=O)C2CCOCC2)[C@H](CO)O1 in this test?
Ans: 0.0

Q: Which outcome was entered for the compound COc1ccc(S(=O)(=O)N2C[C@@H](O)COC[C@@H]3O[C@H](CC(=O)NCc4ccc(Cl)c(Cl)c4)CC[C@H]32)cc1 in this test?
Ans: 0.0

Q: Which outcome was entered for the compound CC(C)NC(=O)N(C)C[C@H]1Oc2ccc(NC(=O)Nc3ccc4c(c3)OCO4)cc2C(=O)N([C@@H](C)CO)C[C@H]1C in this test?
Ans: 0.0

Q: Which outcome was entered for the compound CC(C)NC(=O)N(C)C[C@@H]1Oc2c(NC(=O)Nc3ccc4c(c3)OCO4)cccc2C(=O)N([C@@H](C)CO)C[C@H]1C in this test?
Ans: 1.0

Q: Which outcome was entered for the compound COc1ccc(NC(=O)N(C)C[C@@H]2OCCCC[C@@H](C)Oc3ccc(NC(=O)C4CCCCC4)cc3C(=O)N([C@@H](C)CO)C[C@@H]2C)cc1 in this test?
Ans: 0.0

Q: Which outcome was entered for the compound NCc1ccc(C(N)=O)cc1 in this test?
Ans: 0.0

Q: Which outcome was entered for the compound COc1ccc(S(=O)(=O)N2C[C@@H](O)COC[C@H]3O[C@@H](CC(=O)NCc4ccc(Cl)c(Cl)c4)CC[C@@H]32)cc1 in this test?
Ans: 1.0

Q: Which outcome was entered for the compound C[C@@H]1CN([C@H](C)CO)C(=O)c2cc(NC(=O)NC3CCCCC3)ccc2O[C@@H]1CN(C)C(=O)Nc1cccc2ccccc12 in this test?
Ans: 0.0

Q: Which outcome was entered for the compound Cc1ccc(S(=O)(=O)N(C)C[C@@H]2Oc3ccc(NS(=O)(=O)c4cn(C)cn4)cc3C(=O)N([C@@H](C)CO)C[C@H]2C)cc1 in this test?
Ans: 0.0

Q: Which outcome was entered for the compound C[C@@H]1CN([C@H](C)CO)S(=O)(=O)c2ccc(-c3cncnc3)cc2O[C@@H]1CN(C)C(=O)Cc1cccnc1 in this test?
Ans: 0.0

Q: Which outcome was entered for the compound Cc1cc(C(=O)Nc2cccc3c2O[C@@H](CN(C)C(=O)Nc2ccc4c(c2)OCO4)[C@@H](C)CN([C@@H](C)CO)C3=O)n(C)n1 in this test?
Ans: 1.0

Q: Which outcome was entered for the compound Cc1cc2nc3c(=O)[nH]c(=O)nc-3n(C[C@@H](O)[C@@H](O)[C@@H](O)CO)c2cc1C in this test?
Ans: 0.0

Q: Which outcome was entered for the compound COc1ccc(S(=O)(=O)N2C[C@H](O)COC[C@H]3O[C@H](CC(=O)NCc4ccc(Cl)c(Cl)c4)CC[C@@H]32)cc1 in this test?
Ans: 0.0

Q: Which outcome was entered for the compound C=C1C(=O)OC2C1CCC(C)=CCCC1(C)OC21 (stereo unspecified) in this test?
Ans: 1.0

Q: Which outcome was entered for the compound C=C1CCC=C(C)CCC2C1CC2(C)C.O (single isomer, unassigned; (-)) [(-)E-CARYOPHYLLENE hydrate ] in this test?
Ans: 0.0

Q: Which outcome was entered for the compound C[C@@H]1CCCCO[C@@H](CN(C)S(=O)(=O)c2cccs2)[C@H](C)CN([C@@H](C)CO)C(=O)c2cc(NC(=O)C3CCCCC3)ccc2O1 in this test?
Ans: 0.0

Q: Which outcome was entered for the compound C[C@@H]1CN([C@H](C)CO)C(=O)Cc2cc(NS(=O)(=O)c3ccccc3)ccc2O[C@@H]1CN(C)S(C)(=O)=O in this test?
Ans: 0.0

Q: Which outcome was entered for the compound Cc1noc(C)c1S(=O)(=O)N(C)C[C@H]1Oc2ccc(NS(=O)(=O)c3ccccc3)cc2CC(=O)N([C@H](C)CO)C[C@H]1C in this test?
Ans: 0.0

Q: Which outcome was entered for the compound COC(=O)[C@H](Cc1ccccc1)N1CC2=CC(=O)[C@H](C3CC3)[C@H]2[C@@H]1[C@@H](O)CCn1cc(-c2cccc(/C=C/C(=O)NO)c2)nn1 in this test?
Ans: 0.0

Q: Which outcome was entered for the compound CC(C)NC(=O)N(C)C[C@H]1Oc2ccc(NC(=O)Nc3ccc4c(c3)OCO4)cc2C(=O)N([C@H](C)CO)C[C@H]1C in this test?
Ans: 0.0
